# testedOn: human SXR ligand binding domain (Homo sapiens, UniProt O75469)
# Sequence (O75469 146-433 limits assumed): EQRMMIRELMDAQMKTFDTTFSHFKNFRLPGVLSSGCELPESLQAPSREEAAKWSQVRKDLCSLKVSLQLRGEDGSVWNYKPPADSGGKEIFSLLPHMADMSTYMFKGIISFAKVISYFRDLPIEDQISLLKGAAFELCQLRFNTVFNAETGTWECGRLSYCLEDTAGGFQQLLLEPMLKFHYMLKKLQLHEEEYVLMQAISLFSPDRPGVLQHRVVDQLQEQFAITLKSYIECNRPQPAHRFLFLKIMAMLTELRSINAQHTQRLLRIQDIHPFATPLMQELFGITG
testReadout: pKi
Please express pKi as -log10 of the molar concentration.

Problem: Lab note: need pKi for C[S+]([O-])CCCCN=C=S (stereo not shown) [SFN, 4-methylsulfinylbutyl isothiocyanate] on human SXR ligand binding domain (Homo sapiens, UniProt O75469), anyone have it?
Solution: 4.80

----------
# testedOn: SXR (Homo sapiens)
# Sequence (O75469 whole entry): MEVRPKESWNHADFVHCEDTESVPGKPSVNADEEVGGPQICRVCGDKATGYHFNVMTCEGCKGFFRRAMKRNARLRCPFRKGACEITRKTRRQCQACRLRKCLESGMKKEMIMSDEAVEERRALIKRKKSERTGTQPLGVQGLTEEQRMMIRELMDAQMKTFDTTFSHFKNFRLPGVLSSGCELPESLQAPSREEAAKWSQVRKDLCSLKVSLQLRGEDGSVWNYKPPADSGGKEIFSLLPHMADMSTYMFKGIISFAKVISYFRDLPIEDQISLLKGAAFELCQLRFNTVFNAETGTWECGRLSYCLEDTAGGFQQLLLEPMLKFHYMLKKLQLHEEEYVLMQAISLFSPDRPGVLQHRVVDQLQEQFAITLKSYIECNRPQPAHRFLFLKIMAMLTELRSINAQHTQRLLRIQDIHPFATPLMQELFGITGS
# procedureSummary: Transient transfection luciferase assay, full-length SXR with CYP3A4-luc reporter in HepG2 cells
pIC50: −log10 of the molar value.
testReadout: pIC50

Problem: Lab note: need pIC50 for C[S+]([O-])CCCCN=C=S (stereo not shown) [SFN, 4-methylsulfinylbutyl isothiocyanate] on SXR (Homo sapiens), anyone have it?
Solution: ~4.92
